Data origin, for the record: PubChem BioAssay (NCI)

System: HCC-2998 colon
procedure-summary: NCI-60 one-dose screen, 48 h (100 = growth as untreated, 0 = no growth, -100 = all killed)
measurement-setup: 10 µM unless noted
Compounds without any hit were thinned out: in the full panel of roughly 83,000, 20% have a hit.
measurement-kind: growth (%)

INSERT INTO assay_data (compound, measurement_kind, observed) VALUES
  ('O=C(N/N=C/c1ccc(Cl)o1)c1[nH]c2ccc(Br)cc2c1-c1ccccc1', 'growth', -26),
  ('Cc1ccc(NC(=O)N/N=C/c2c[nH]c3ccccc23)c(C)c1', 'growth', -11.2),
  ('CNS(=O)(=O)N1CCc2c(Br)c3c(c(OC)c2C1CCc1ccccc1)OCO3 (stereo not drawn)', 'growth', -12.7),
  ('COc1ccc2c(c1)C(Sc1ccc(Br)cc1)c1c(nc(N)c(C#N)c1N)O2 (stereo not drawn)', 'growth', 111),
  ('O=C1Nc2cc(-c3ccc(NS(=O)(=O)c4ccc(F)c(Cl)c4)cc3)ccc2/C1=C/c1ccc[nH]1', 'growth', 17.1),
  ('Cc1ccc(C(=O)Nc2cc(-n3cnc(F)c3)cc(C(F)(F)F)c2)cc1C#Cc1cnc2cccnn12', 'growth', 70.6),
  ('O=C(Cc1c(-c2cccc([N+](=O)[O-])c2)n(-c2ncnc3c2c(-c2ccccc2)c(-c2ccccc2)n3Cc2ccccc2)[nH]c1=O)c1ccc(Cl)c(Cl)c1', 'growth', 26.7),
  ('Clc1ccccc1Nc1nnc(-c2c[nH]c3ccccc23)o1', 'growth', 6.55),
  ('CCOC(=O)/C(F)=C/C1CC1CCc1ccc(OCC)cc1 (stereo not drawn)', 'growth', 90.5),
  ('COc1ccc(C(=O)c2cc(C(C)=O)c3c(C)cc(C)cn23)cc1', 'growth', 76.1),
  ('Cn1cc(-c2cc(N)n3nc(-c4c[nH]c5ccccc45)cc3n2)c2ccccc21', 'growth', -77.1),
  ('O=C(N/N=C/c1ccc(Cl)cc1)c1ccc(OCc2nc3ccc(Cl)cc3[nH]2)cc1', 'growth', 18.2),
  ('NS(=O)(=O)c1ccc(Nc2nc(N/N=C/c3cc(Br)c(O)c(Br)c3)nc(Nc3ccccc3)n2)cc1', 'growth', 5.2);
